- assay_protocol: growth suppression of PTEN-deleted HCT116, pilot screen, cell-based, HCT116 clonal line, CellTiter-Glo (AID 824);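 note: 0% = 20 µM Hyamine control and 100% = vehicle cell control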
- conditions_used: 60 h, at 10 µM, stronger effect = lower value
Results filed as inconclusive are left out.
metric_name: viability (%)

O=C(CC1SC(=Nc2ccccc2)N(CCCO)C1=O)Nc1ccc(Cl)cc1 (stereo unspecified)	42.1
Cc1ccc(NC(=O)c2c(O)c3ccccc3n(C)c2=O)nc1	70.2
CCOC(=O)N1CCN(C(=O)c2ccccc2NC(=O)COc2ccccc2C)CC1	82.2
O=C(Cc1ccccc1)NCCn1ccc2ccccc21	88.8
COc1ccc(C2CC(c3ccc(Cl)cc3Cl)Nc3nc(N)nn32)cc1OC (stereo unspecified)	85.7
COCCn1c(SCC(=O)Nc2ccccc2)nc2c1c(=O)[nH]c(=O)n2C	95.5
